Recorded measurements of peptide exchange yield, one per entry
- targetSystem: HLA-A*24 (human)
- assayNotes: UV-exchange b2m ELISA

Reference set (7 entries):
{"binder": "YYVYIMNHL", "propertyLabel": "peptide exchange yield", "val": "50 to 75%"}
{"binder": "YYLEVGKTLI", "propertyLabel": "peptide exchange yield", "val": "> 75%"}
{"binder": "FYSRLLQKF", "propertyLabel": "peptide exchange yield", "val": "50 to 75%"}
{"binder": "LYHDIFSRL", "propertyLabel": "peptide exchange yield", "val": "> 75%"}
{"binder": "IYDDSFIRPVTF", "propertyLabel": "peptide exchange yield", "val": "50 to 75%"}
{"binder": "YYGPSLFLL", "propertyLabel": "peptide exchange yield", "val": "50 to 75%"}
{"binder": "LYLDIINLF", "propertyLabel": "peptide exchange yield", "val": "> 75%"}

Attention now turns to another entry.
Fill in the blank: the reported peptide exchange yield of TYELRYFQI is ____.
> 75%

Provenance of the data: patent US20170165338A1
